Kindly supply the reported pKi values for the records listed here.
# system: Gamma-secretase
# experimental details: Displacement of [3H]succinamide from gamma secretase in THP1 cell membranes
# measurement conditions: thp-1
One number for each entry, as −log10 of the molar value.

CCCNC(=O)C1(C(=O)N[C@H]2N=C(c3ccccc3)c3ccccc3N(C)C2=O)CCC1: 7.82
CC(C)CNC(=O)C1(C(=O)N[C@H]2N=C(c3ccccc3)c3ccccc3N(C)C2=O)CCC1: 8.46
CN1C(=O)[C@@H](NC(=O)C2(C(=O)NCCC3CCCC3)CCC2)N=C(c2ccc(C(F)(F)F)cc2)c2ccccc21: 8.66

Batch lookup, pKi per entry.
1. CC(C)CC(F)(F)NC(=O)C1(C(=O)N[C@@H]2C(=O)N(C)c3ccccc3-c3ccccc32)CCC1
2. CC(C)C[C@H](O)NC(=O)C1(C(=O)N[C@@H]2C(=O)N(C)c3ccccc3-c3ccccc32)CCC1
3. CC(C)CNC(=O)C1(C(=O)N[C@@H]2C(=O)N(C)c3ccccc3-c3ccccc32)CCC1
4. CN1C(=O)[C@@H](NC(=O)C2(C(=O)NCc3cc(F)cc(F)c3)CCC2)N=C(c2ccccc2)c2ccccc21
5. CC(C)CCNC(=O)C1(C(=O)N[C@H]2N=C(c3ccc(C(F)(F)F)cc3)c3ccccc3N(C)C2=O)CCC1
6. CCNC(=O)C(CC)(CC)C(=O)N[C@H]1N=C(c2ccccc2)c2ccccc2N(C)C1=O

Response:
7.66
9.05
8.85
7.87
8.31
6.00

---

# experimental details: Fraction unbound ligand in Beagle dog at 0.5 mg/kg, po
# Type: ADME, organism-based, Canis lupus familiaris
# Parameters: dose 0.5 mg/kg, route oral
# measurement conditions: in vivo
Classification field: enter MET for fraction unbound values not below 0.005, NOT MET for values below it.

CN1C(=O)[C@@H](NC(=O)C2(C(=O)NCCC3CCCC3)CCC2)c2ccccc2-c2ccccc21: NOT MET

Prompt: Is the recorded value of fraction unbound equal to or greater than 0.005 for this molecule? CC(C)CNC(=O)C1(C(=O)N[C@H]2N=C(c3ccccc3)c3ccccc3N(C)C2=O)CCC1
Response: NOT MET

Prompt: Is the recorded value of fraction unbound equal to or greater than 0.005 for this molecule? CC(C)C[C@H](O)NC(=O)C1(C(=O)N[C@H]2N=C(c3ccc(C(F)(F)F)cc3)c3ccccc3N(C)C2=O)CCC1
Response: MET

Prompt: Is the recorded value of fraction unbound equal to or greater than 0.005 for this molecule? CC(C)CNC(=O)C1(C(=O)N[C@@H]2C(=O)N(C)c3ccccc3-c3ccccc32)CCC1
Response: NOT MET

---

# system: Gamma-secretase
# experimental details: Displacement of [3H]succinamide from gamma secretase in THP1 cell membranes
# measurement conditions: thp-1
Ranges used to classify Ki: bottom end: < 3 nM; midrange: ≥ 3 nM and < 10 nM; top end: ≥ 10 nM

CN1C(=O)[C@@H](NC(=O)C2(C(=O)N[C@H](O)C3CCCCC3)CCC2)N=C(c2ccc(C(F)(F)F)cc2)c2ccccc21: top end
CN1C(=O)[C@@H](NC(=O)C2(C(=O)N[C@@H](O)C3CCCCC3)CCC2)N=C(c2ccc(C(F)(F)F)cc2)c2ccccc21: midrange
CC(C)CNC(=O)C1(C(=O)N[C@H]2N=C(c3ccccc3)c3ccccc3N(C)C2=O)CCCC1: midrange
CC(C)C[C@H](O)NC(=O)C1(C(=O)N[C@H]2N=C(c3ccc(C(F)(F)F)cc3)c3ccccc3N(C)C2=O)CCC1: bottom end
CC(C)CNC(=O)C1(C(=O)N[C@H]2N=C(c3ccc(C(F)(F)F)cc3)c3ccccc3N(C)C2=O)CCC1: bottom end
CN1C(=O)[C@@H](NC(=O)C2(C(=O)NCCC3CCCC3)CCC2)c2ccccc2-c2ccccc21: bottom end
CC(C)CCNC(=O)C1(C(=O)N[C@@H]2C(=O)N(C)c3ccccc3-c3ccccc32)CCC1: midrange
CN1C(=O)[C@@H](NC(=O)C2(C(=O)NCCC3CCCC3)CCCC2)N=C(c2ccccc2)c2ccccc21: top end

Now consider a different compound.
Prompt: Class? Entry: CCCNC(=O)C(CC)(CC)C(=O)N[C@H]1N=C(c2ccccc2)c2ccccc2N(C)C1=O
Response: top end

---

# experimental details: Clearance in Beagle dog at 0.5 mg/kg, po
# Format: ADME, organism-based, Canis lupus familiaris
# Design: dose 0.5 mg/kg, route oral
# measurement conditions: in vivo
# strict inequality: CL/F < 5 mL/min/kg yields 1, everything else yields -1

Worked examples, 4 molecules total:
CC(C)CNC(=O)C1(C(=O)N[C@H]2N=C(c3ccccc3)c3ccccc3N(C)C2=O)CCC1: -1
CC(C)C[C@H](O)NC(=O)C1(C(=O)N[C@H]2N=C(c3ccc(C(F)(F)F)cc3)c3ccccc3N(C)C2=O)CCC1: 1
CC(C)CNC(=O)C1(C(=O)N[C@@H]2C(=O)N(C)c3ccccc3-c3ccccc32)CCC1: -1
CC(C)CCNC(=O)C1(C(=O)N[C@@H]2C(=O)N(C)c3ccccc3-c3ccccc32)CCC1: 1

Now consider a different molecule.
Prompt: Determine whether this molecule shows CL/F lower than 5 mL/min/kg (ties excluded): CC(C)CCNC(=O)C1(C(=O)N[C@H]2N=C(c3ccc(C(F)(F)F)cc3)c3ccccc3N(C)C2=O)CCC1
Response: 1

---

# Tested on: Canis familiaris
# experimental details: Volume of distribution at steady state in Beagle dog at 0.5 mg/kg, po
# Assay type: ADME, organism-based, Canis lupus familiaris
# Set-up: dose 0.5 mg/kg, route oral
# measurement conditions: in vivo
Kindly supply the reported log10 Vdss values for the records listed here.
Annotation: log10 of Vdss, L/kg basis.

Sample answers from the record:
CC(C)C[C@H](O)NC(=O)C1(C(=O)N[C@H]2N=C(c3ccc(C(F)(F)F)cc3)c3ccccc3N(C)C2=O)CCC1: -0.70
CC(C)CCNC(=O)C1(C(=O)N[C@@H]2C(=O)N(C)c3ccccc3-c3ccccc32)CCC1: -0.05
CN1C(=O)[C@@H](NC(=O)C2(C(=O)NCCC3CCCC3)CCC2)c2ccccc2-c2ccccc21: 0.46

Batch lookup, log10 Vdss per entry.
1. CC(C)CCNC(=O)C1(C(=O)N[C@H]2N=C(c3ccc(C(F)(F)F)cc3)c3ccccc3N(C)C2=O)CCC1
2. CC(C)CNC(=O)C1(C(=O)N[C@@H]2C(=O)N(C)c3ccccc3-c3ccccc32)CCC1
3. CC(C)CNC(=O)C1(C(=O)N[C@H]2N=C(c3ccccc3)c3ccccc3N(C)C2=O)CCC1

Response:
[0.28, 0.32, 0.49]

---

Kindly supply the reported pIC50 values for the records listed here.
# system: Gamma-secretase
# experimental details: Inhibition of gamma secretase in APP-transfected CHO cells
# Assay type: cell-based, Homo sapiens
Numbers only, as −log10 of the molar value.

CC(C)CCNC(=O)C1(C(=O)N[C@@H]2C(=O)N(C)c3ccccc3-c3ccccc32)CCC1: 7.82
CC(C)CNC(=O)C1(C(=O)N[C@H]2N=C(c3ccccc3)c3ccccc3N(C)C2=O)CCCC1: 7.71
CC(C)[C@H](O)NC(=O)C1(C(=O)N[C@H]2N=C(c3ccc(C(F)(F)F)cc3)c3ccccc3N(C)C2=O)CCC1: 8.17

Batch lookup, pIC50 per entry.
1. CCCCNC(=O)C1(C(=O)N[C@H]2N=C(c3ccccc3)c3ccccc3N(C)C2=O)CCC1
2. CN1C(=O)[C@@H](NC(=O)C2(C(=O)N[C@@H](O)C3CCCCC3)CCC2)N=C(c2ccc(C(F)(F)F)cc2)c2ccccc21
3. CN1C(=O)[C@@H](NC(=O)C2(C(=O)NCCC3CCCC3)CCC2)N=C(c2ccc(C(F)(F)F)cc2)c2ccccc21
4. CCCNC(=O)C1(C(=O)N[C@H]2N=C(c3ccccc3)c3ccccc3N(C)C2=O)CCC1
5. CC(C)[C@H](O)NC(=O)C1(C(=O)N[C@@H]2C(=O)N(C)c3ccccc3-c3ccccc32)CCC1

Response:
1: 7.70; 2: 7.96; 3: 7.89; 4: 7.09; 5: 7.82

---

# system: Gamma-secretase
# experimental details: Inhibition of gamma secretase in APP-transfected CHO cells
# Type: cell-based, Homo sapiens
Kindly supply the reported log10 IC50 values for the records listed here.
Annotation: log10 of IC50, nM basis.

CN1C(=O)[C@@H](NC(=O)C2(C(=O)NCc3cccs3)CCCC2)N=C(c2ccccc2)c2ccccc21: 1.28

Batch lookup, log10 IC50 per entry.
1. CN1C(=O)[C@@H](NC(=O)C2(C(=O)N[C@H](O)C3CCCCC3)CCC2)N=C(c2ccc(C(F)(F)F)cc2)c2ccccc21
2. CC(C)CNC(=O)C1(C(=O)N[C@@H]2C(=O)N(C)c3ccccc3-c3ccccc32)CCC1
3. CN1C(=O)[C@@H](NC(=O)C2(C(=O)NCc3cc(F)cc(F)c3)CCCC2)N=C(c2ccccc2)c2ccccc21
4. CC(C)C[C@H](O)NC(=O)C1(C(=O)N[C@H]2N=C(c3ccc(C(F)(F)F)cc3)c3ccccc3N(C)C2=O)CCC1
5. CC(C)C[C@H](O)NC(=O)C1(C(=O)N[C@@H]2C(=O)N(C)c3ccccc3-c3ccccc32)CCC1
6. CC(C)CC(F)(F)NC(=O)C1(C(=O)N[C@@H]2C(=O)N(C)c3ccccc3-c3ccccc32)CCC1
7. CN1C(=O)[C@@H](NC(=O)C2(C(=O)NCc3cc(F)cc(F)c3)CCC2)N=C(c2ccccc2)c2ccccc21

Response:
1: 2.45; 2: 0.76; 3: 1.98; 4: 0.79; 5: 0.62; 6: 2.45; 7: 2.06
